Hey, just so you know, these numbers are from PubChem BioAssay (NCI).

Test system: RXF 393 renal
method description: NCI tumour cell line growth inhibition, 48 h

- compound: "CC1=Cc2cc3[n-]c(cc4nc(cc5[n-]c(cc1n2)cc5C)C(C)=C4CCC(=O)O)c(CCC(=O)O)c3C.[Pd+2]"
  GI50: "17.9 µM"
- compound: "Cc1[nH]c(/C=C2\\C(=O)Nc3ccc(F)cc32)c(C)c1C(=O)NC[C@H](O)CN1CCOCC1"
  GI50: "2.33 µM"
- compound: "S=C(Nc1ccc(Cl)cc1)Nc1ccc(-c2nc3ccccc3[nH]2)cc1"
  GI50: "5.86 µM"
- compound: "O=C1c2ccccc2-c2c1c1ccccc1c(=O)n2CCCN1CCOCC1"
  GI50: "6.21 µM"
- compound: "C/C=C(\\C)C(=O)O[C@H]1C=CC(=O)O[C@H]1CNC(=O)[C@H](C)O"
  GI50: "19.3 µM"
- compound: "Cc1nc2cccc(NCc3ccc(C(=O)NO)cc3)c2c(=O)n1-c1ccccc1"
  GI50: "1.41 µM"
- compound: "Nc1ccccc1C#C/C=C\\C#Cc1ccc(Cl)cc1Cl"
  GI50: "14.3 µM"
- compound: "CN(C)Cc1ccc(C(=O)Nc2ccc3ncnc(Nc4ccc(Oc5cccc(F)c5)c(Cl)c4)c3c2)cc1"
  GI50: "1.5 µM"
- compound: "C[N+](C)(CCCCCC[N+](C)(C)CCCN1C(=O)c2cc3ccccc3cc2C1=O)CCCN1C(=O)c2ccccc2C1=O"
  GI50: "> 37.5 µM"
- compound: "COc1cc(/C=C/C(=O)c2ccc(Cl)cc2)ccc1OS(=O)(=O)c1ccc(C)cc1"
  GI50: "13.2 µM"
- compound: "O=C(Nc1ccc(Cl)cc1)c1cc2ccccc2cc1O"
  GI50: "7.19 µM"
- compound: "O=C1CCC2(C=C(Br)C(=O)C(Br)=C2)O1"
  GI50: "2.82 µM"
- compound: "CCN(CC)CCCCCCCNc1c2ccc(Cl)cc2nc2ccc(OC)cc12"
  GI50: "0.84 µM"
- compound: "CC(NNC(=S)N1CCCCCC1)c1ccc2ccccc2n1 (stereo not given)"
  GI50: "4.7 µM"
- compound: "O=[N+]([O-])/C=C/c1c[nH]c2ccccc12"
  GI50: "19.5 µM"

* * *

Tested on: LXFL 529 NSCLC
method description: NCI tumour cell line growth inhibition, 48 h
experimental endpoint: TGI

- compound: "CCOC(=O)CC[C@@H](NC(=O)c1ccc(N[C@@H]2c3cc4c(cc3C(c3cc(OC)c(O)c(OC)c3)C3C(=O)OC[C@@H]32)OCO4)cc1)C(=O)OCC (stereo partly drawn)"
  experimental endpoint: "TGI"
  observed: "> 10 µM"
- compound: "COC(=O)N/N=C/c1oc(-c2cccc([N+](=O)[O-])c2)c(-c2cccc([N+](=O)[O-])c2)c1[N+](=O)[O-]"
  experimental endpoint: "TGI"
  observed: "> 100 µM"
- compound: "CS(=O)c1ccc(COP(N)(=O)N(CCCl)CCCl)cc1 (stereo not drawn)"
  experimental endpoint: "TGI"
  observed: "> 100 µM"
- compound: "CCOC(=O)C1C(=O)c2ccccc2CN1Cc1ccccc1 (stereo not drawn)"
  experimental endpoint: "TGI"
  observed: "> 100 µM"
- compound: "CN(c1ccccc1)C(c1ccccc1)C(O)c1ccccc1 (stereo not drawn)"
  experimental endpoint: "TGI"
  observed: "43.4 µM"
- compound: "CCOP(=O)(OCC)/C(C#N)=C/c1ccco1"
  experimental endpoint: "TGI"
  observed: "> 100 µM"
- compound: "ON=C1CCC(c2ccccc2)CC1 (stereo not drawn)"
  experimental endpoint: "TGI"
  observed: "> 100 µM"
- compound: "COc1ccc2c3ccc4c(c3n(C)c2c1)C(=O)c1ccccc1C4=O"
  experimental endpoint: "TGI"
  observed: "> 100 µM"

* * *

Listing of entries alongside the reported TGI.
Test system: RPMI-8226 leukemia
method description: NCI tumour cell line growth inhibition, 48 h

- molecule: "Cc1cc2c(F)c(Oc3ncnn4cc(OC[C@@H](C)OC(=O)[C@H](C)N)c(C)c34)ccc2[nH]1"
  TGI: "23.7 µM"
- molecule: "O=C(/C=C/c1ccc(O)cc1)NCCc1ccc(O)cc1"
  TGI: "> 12.5 µM"
- molecule: "O=C1c2ccccc2-c2c1c1ccccc1c(=O)n2CCCN1CCOCC1"
  TGI: "> 100 µM"
- molecule: "COc1cc2[nH]c(-c3cccc(N(C)C)c3)cc(=O)c2cc1OC"
  TGI: "> 100 µM"
- molecule: "COc1c(O)ccc2c1CN1CCc3cc4c(cc3C1C2)OCO4 (stereo not given)"
  TGI: "> 100 µM"
- molecule: "C=C1C(=O)OC2C1C(OC(=O)/C(C)=C/C)CC1(C)C(=O)CCC(=C)C21 (stereo not given)"
  TGI: "7.97 µM"
- molecule: "CC1NC(/C(=C/c2ccccc2O)NC(=O)c2ccccc2)OC1=O (stereo not given)"
  TGI: "> 50 µM"
- molecule: "O=C(O)C1CC(c2ccccc2)=NN1c1ccccc1 (stereo not given)"
  TGI: "> 100 µM"
- molecule: "CCOC(=O)c1ccc(C(=O)/C(C#N)=C2\\CCCN2)[nH]1"
  TGI: "> 100 µM"
- molecule: "CC(O)C(O)C(N)CC=O (stereo not given)"
  TGI: "> 500 µM"
- molecule: "COc1ccc2ccc([Se]c3ccc4ccc(OC)cc4c3)cc2c1"
  TGI: "> 100 µM"
- molecule: "COC(=O)C1(O)c2ccccc2N=C2C(=O)c3ccccc3N21 (stereo not given)"
  TGI: "> 100 µM"
- molecule: "COc1ccc(/C=C\\c2cc(OC)c(OC)c(OC)c2)cc1OCC(=O)Nc1nc2ccc(C(F)(F)F)cc2s1"
  TGI: "> 100 µM"
- molecule: "CC(=O)CCC[C@@H](C)[C@@H]1O[C@H]([C@@]2(C)CCC(=O)O2)C[C@H]2C(CSc3ccccc3)C(=O)O[C@@H]12 (stereo not given in full)"
  TGI: "52.1 µM"
- molecule: "O=S1(=O)C[C@@H](O)[C@H](O)CS1"
  TGI: "> 100 µM"

* * *

Test system: MDA-MB-435
method description: NCI tumour cell line growth inhibition, 48 h
experimental endpoint: TGI

- compound: "COc1ccc2[nH]c(Cl)c(/C=C3/C(=O)N(C)c4ccccc43)c2c1"
  observed: "> 100 µM"
- compound: "COc1nc(C)cc2c(=O)n(-c3ccccc3)n(CCCN3CCN(c4ccc(Cl)cc4)CC3)c(=O)c12"
  observed: "> 50 µM"
- compound: "O=c1c2cccnc2nc2ccc3c[nH][nH]c3c12"
  observed: "> 10 µM"
- compound: "CCC(=O)COc1ccc(NC(NC(=O)C(C(F)(F)F)C(F)(F)F)(C(F)(F)F)C(F)(F)F)cc1"
  observed: "> 100 µM"
- compound: "O=C(C(Br)Br)C(Br)C(Br)c1ccccc1 (stereo not given)"
  observed: "8.21 µM"

* * *

Recorded TGI values for a group of molecules are listed next.
Tested on: RXF 393 renal
method description: NCI tumour cell line growth inhibition, 48 h
experimental endpoint: TGI

- molecule: "[N-]=[N+]=Nc1ccc2c(c1)Sc1ccccc1N2CCCCCl"
  observed: "> 100 µM"
- molecule: "CC(=O)OC(C)(C)/C=C/C(=O)[C@](C)(O)[C@H]1[C@H](O)C[C@@]2(C)[C@@H]3CC=C4[C@@H](C[C@H](O)C(=O)C4(C)C)[C@]3(C)C(=O)C[C@]12C"
  observed: "< 0.0128 µM"
- molecule: "COC12C=CC(CC1)C1C(=O)c3c(C)c(C)n(C)c3C(=O)C12 (stereo not given)"
  observed: "> 100 µM"
- molecule: "O=C(Cc1ccccc1)c1ccc2[nH]c(=O)oc2c1"
  observed: "> 100 µM"
- molecule: "Cc1nc2cccc(NCc3ccc(C(=O)NO)cc3)c2c(=O)n1-c1ccccc1"
  observed: "2.79 µM"
- molecule: "O=S(=O)(O)c1c(N=Nc2c(O)ccc3ccccc23)ccc2ccccc12"
  observed: "> 100 µM"
- molecule: "O=C(O)c1cc2c(cn1)[nH]c1ccccc12"
  observed: "> 100 µM"
- molecule: "COC(=O)Nc1nc2ccccc2c(=O)[nH]1"
  observed: "> 100 µM"
- molecule: "COc1c(O)ccc2c1CN1CCc3cc4c(cc3C1C2)OCO4 (stereo not given)"
  observed: "50.6 µM"
- molecule: "O=C(c1ccccc1)c1c(C(=O)c2ccccc2)c(-c2ccccc2)c2c(-c3ccccc3)sc(-c3ccccc3)c2c1-c1ccccc1"
  observed: "> 100 µM"
- molecule: "O=C1CCC2(C=C(Br)C(=O)C(Br)=C2)O1"
  observed: "6.96 µM"
- molecule: "Oc1cc2cccc[n+]2c2cccc(Cl)c12"
  observed: "74.6 µM"
- molecule: "O=C1c2ccccc2-c2c1c1ccccc1c(=O)n2CCCN1CCOCC1"
  observed: "24.3 µM"
- molecule: "COc1ccc(/C=C2/C[N+](C)(C)C/C(=C/c3ccc(OC)cc3)C2=O)cc1"
  observed: "> 100 µM"
- molecule: "O=P(O)(Cc1ccccc1)OCC1(O)OCC(O)C(O)C1O (stereo not given)"
  observed: "> 10 µM"
- molecule: "CCOC(=O)c1ccc(N2C(=O)/C(=C\\OC)c3ccccc3C2=O)cc1"
  observed: "61.3 µM"
- molecule: "COC(=O)c1c(C(=O)OC)c2cc(C(=O)c3ccccc3)ccn2c1Cl"
  observed: "85 µM"
- molecule: "CC(=O)O[C@H]1C(=O)[C@@]2(C)[C@H]([C@H](OC(=O)C3CCCCC3)[C@]3(O)C[C@H](OC(=O)[C@H](O)[C@@H](NC(=O)C4CCCCC4)C4CCCCC4)C(C)=C1C3(C)C)[C@]1(OC(C)=O)CO[C@@H]1C[C@@H]2O"
  observed: "0.555 µM"
- molecule: "CC1(C)OCC(C2OC(N3O[C@H](CI)C[C@@H]3c3ccccc3)C3OC(C)(C)OC23)O1 (stereo not given in full)"
  observed: "> 100 µM"
- molecule: "c1ccc2sc(C3(N4CCCCC4)CCCC3)cc2c1"
  observed: "30.3 µM"
